Biological target: Sodium- and chloride-dependent betaine transporter (Homo sapiens) (UniProt P48065)
Sequence (whole entry): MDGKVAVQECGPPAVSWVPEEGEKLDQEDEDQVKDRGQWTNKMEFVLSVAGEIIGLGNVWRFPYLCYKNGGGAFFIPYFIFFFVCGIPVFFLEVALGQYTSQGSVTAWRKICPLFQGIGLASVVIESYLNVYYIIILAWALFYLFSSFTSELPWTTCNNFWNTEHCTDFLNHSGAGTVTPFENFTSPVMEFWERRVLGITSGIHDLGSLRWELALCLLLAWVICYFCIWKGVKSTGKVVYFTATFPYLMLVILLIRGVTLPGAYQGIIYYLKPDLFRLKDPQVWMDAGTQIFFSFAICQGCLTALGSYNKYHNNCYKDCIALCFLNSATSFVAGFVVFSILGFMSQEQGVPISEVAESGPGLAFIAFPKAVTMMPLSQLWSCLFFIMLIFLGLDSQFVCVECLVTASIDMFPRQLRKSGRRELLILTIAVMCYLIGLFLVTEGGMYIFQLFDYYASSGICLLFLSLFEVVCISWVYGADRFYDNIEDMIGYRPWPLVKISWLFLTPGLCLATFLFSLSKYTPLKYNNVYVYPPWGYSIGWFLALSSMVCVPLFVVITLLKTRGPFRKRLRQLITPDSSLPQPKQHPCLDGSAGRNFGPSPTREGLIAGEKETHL
Assay: Inhibition of human BGT1 transfected in CHO cells assessed as [3H]GABA uptake at 100 uM after 20 mins by liquid scintillation counting analysis
Format: cell-based
For each record, write down the corresponding inhibition.

For record Cl.N[C@@H]1C[C@H]1CC(=O)O the listed inhibition is 92.8%

For record NC[C@H]1C[C@@H]1C(=O)O the listed inhibition is 24.9%

For record N[C@@H]1C[C@@H]1CC(=O)O the listed inhibition is 28.8%

For record N[C@H]1C[C@H]1CC(=O)O the listed inhibition is -0.7%

For record NC[C@H]1C[C@H]1C(=O)O the listed inhibition is 18.2%

For record NC[C@@H]1C[C@@H]1C(=O)O the listed inhibition is 6.6%

For record NC[C@@H]1C[C@H]1C(=O)O the listed inhibition is 57.3%

For record N[C@H]1C[C@@H]1CC(=O)O the listed inhibition is 46.2%
